Biological target: T1, hiR2-FL-Q527P-T7 (human, UniProt Q6PJF5 1-856)
T1 sequence: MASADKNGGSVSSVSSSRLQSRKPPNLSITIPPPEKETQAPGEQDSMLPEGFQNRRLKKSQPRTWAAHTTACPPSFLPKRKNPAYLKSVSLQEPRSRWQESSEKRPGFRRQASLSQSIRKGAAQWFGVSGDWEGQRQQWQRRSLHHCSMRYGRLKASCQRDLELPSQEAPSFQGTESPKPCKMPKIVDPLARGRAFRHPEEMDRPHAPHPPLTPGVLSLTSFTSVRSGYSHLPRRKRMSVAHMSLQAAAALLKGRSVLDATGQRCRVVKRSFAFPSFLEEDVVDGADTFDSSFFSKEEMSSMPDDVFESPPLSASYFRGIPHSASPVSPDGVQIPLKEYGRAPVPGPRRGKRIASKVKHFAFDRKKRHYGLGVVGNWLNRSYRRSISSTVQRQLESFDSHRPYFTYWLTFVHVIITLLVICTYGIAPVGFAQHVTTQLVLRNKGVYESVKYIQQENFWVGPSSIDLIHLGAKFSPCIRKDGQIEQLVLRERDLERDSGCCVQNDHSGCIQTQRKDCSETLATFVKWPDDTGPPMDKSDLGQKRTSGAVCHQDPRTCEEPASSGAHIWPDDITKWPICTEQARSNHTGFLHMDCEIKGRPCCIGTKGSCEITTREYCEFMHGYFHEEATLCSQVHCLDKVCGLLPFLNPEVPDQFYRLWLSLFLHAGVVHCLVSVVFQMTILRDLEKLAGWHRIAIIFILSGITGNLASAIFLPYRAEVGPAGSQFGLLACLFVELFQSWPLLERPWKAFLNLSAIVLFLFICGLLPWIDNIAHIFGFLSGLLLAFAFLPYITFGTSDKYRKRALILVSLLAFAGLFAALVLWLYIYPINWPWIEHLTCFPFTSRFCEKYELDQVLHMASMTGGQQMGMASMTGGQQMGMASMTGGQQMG
Assay: FACS, MEF-DKO cells, 3 µg/ml
MEASURED_METRIC: loss of binding vs wild type

binder="antibody 43 (antibody, V domains shown, mouse IgG, kappa light chain; also called clone #43; purified antibody 43) VH: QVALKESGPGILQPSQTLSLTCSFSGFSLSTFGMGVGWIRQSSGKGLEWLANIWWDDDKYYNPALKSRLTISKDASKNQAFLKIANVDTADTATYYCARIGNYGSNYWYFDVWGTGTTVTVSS VL: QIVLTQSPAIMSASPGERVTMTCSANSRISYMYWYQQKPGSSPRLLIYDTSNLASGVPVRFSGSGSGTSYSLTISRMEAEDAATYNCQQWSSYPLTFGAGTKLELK" val="≥ 60%"
binder="antibody 5 (antibody, V domains shown, mouse IgG, kappa light chain; also called clone #5; purified antibody 5) VH: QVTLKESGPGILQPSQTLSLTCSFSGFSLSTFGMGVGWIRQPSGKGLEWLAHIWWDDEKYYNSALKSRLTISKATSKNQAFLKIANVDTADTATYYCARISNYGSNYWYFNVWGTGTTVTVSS VL: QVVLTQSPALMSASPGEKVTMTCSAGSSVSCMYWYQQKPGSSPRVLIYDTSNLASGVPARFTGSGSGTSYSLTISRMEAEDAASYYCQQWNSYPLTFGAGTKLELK" val="≥ 60%"
binder="antibody 50 (antibody, V domains shown, mouse IgG, kappa light chain; also called clone #50; purified antibody 50) VH: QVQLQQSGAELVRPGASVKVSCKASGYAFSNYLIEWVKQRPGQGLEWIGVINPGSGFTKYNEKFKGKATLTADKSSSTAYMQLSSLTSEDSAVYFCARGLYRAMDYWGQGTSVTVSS VL: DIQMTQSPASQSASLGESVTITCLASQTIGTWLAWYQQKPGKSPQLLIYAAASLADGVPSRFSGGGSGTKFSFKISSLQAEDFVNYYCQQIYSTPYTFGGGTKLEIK" val="≥ 30%"
binder="antibody 3 (antibody, V domains shown, mouse IgG, kappa light chain; also called clone #3; purified antibody 3) VH: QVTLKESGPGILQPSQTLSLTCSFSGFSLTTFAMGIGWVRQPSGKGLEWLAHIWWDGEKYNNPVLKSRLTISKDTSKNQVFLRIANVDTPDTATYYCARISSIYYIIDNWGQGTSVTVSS VL: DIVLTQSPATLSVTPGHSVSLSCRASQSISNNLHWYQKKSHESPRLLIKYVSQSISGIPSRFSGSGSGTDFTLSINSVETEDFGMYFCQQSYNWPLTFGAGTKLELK" val="≥ 30%"
binder="antibody 44 (antibody, V domains shown, mouse IgG, kappa light chain; also called clone #44; purified antibody 44) VH: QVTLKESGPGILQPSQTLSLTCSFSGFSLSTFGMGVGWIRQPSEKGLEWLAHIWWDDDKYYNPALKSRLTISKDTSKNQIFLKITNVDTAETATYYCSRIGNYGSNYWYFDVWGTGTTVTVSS VL: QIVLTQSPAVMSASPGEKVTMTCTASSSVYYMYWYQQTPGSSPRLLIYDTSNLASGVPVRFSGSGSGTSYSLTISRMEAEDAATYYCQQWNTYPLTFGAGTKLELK" val="≥ 60%"
binder="antibody 42 (antibody, V domains shown, mouse IgG, kappa light chain; also called clone #42; purified antibody 42) VH: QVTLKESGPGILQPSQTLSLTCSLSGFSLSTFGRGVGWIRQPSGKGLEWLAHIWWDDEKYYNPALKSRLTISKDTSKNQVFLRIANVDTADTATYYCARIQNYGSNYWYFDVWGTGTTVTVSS VL: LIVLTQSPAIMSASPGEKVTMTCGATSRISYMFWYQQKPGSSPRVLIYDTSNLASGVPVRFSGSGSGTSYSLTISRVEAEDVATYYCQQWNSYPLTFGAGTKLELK" val="≥ 30%"
binder="antibody 48 (antibody, V domains shown, mouse IgG, kappa light chain; also called clone #48; purified antibody 48) VH: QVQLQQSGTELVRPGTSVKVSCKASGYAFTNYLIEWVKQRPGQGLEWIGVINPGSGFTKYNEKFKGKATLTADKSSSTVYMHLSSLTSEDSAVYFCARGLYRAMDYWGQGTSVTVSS VL: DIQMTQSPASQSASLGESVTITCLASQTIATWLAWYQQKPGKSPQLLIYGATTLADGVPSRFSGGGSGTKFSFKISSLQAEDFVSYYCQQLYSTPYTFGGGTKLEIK" val="≥ 30%"
